Numbers sourced from ChEMBL document CHEMBL4190257.

assay: AUC (0 to 24 hrs) in fasted Sprague-Dawley rat at 10 mg/kg, po administered as single dose measured up to 24 hrs post dose by LC-PDA-MS/MS analysis; assay type: ADME, organism-based; set-up: time < 24 hr, dose 10 mg/kg, route oral; settings: in vivo
ENDPOINT: AUC(0-t) at 24 h (ng·h/mL)

1 = Cc1cc(OCCCS(C)(=O)=O)cc(C)c1-c1cccc(COc2ccc(CCC(=O)O)cc2)c1
2 = O=C(O)CS(=O)(=O)c1ccc(OCc2cccc(-c3ccccc3Cl)c2)cc1
Which value of AUC(0-t) at 24 h is numerically greater: that of 1 or that of 2 ? Choose, then provide that item's label.
2

----------
test: Octanol/phosphate buffer distribution coefficient, log D of the compound at 100 uM at pH 7.4 after 24 hrs by shake flask method; assay type: physicochemical
ENDPOINT: logD at 24 h, 100 µM

The examples below pair each entry with its known result.
Return logD at 24 h, 100 µM (reported value) for this molecule: `Cc1cccc(C)c1-c1cccc(COc2ccc(SCC(=O)O)cc2)c1`
3.82

Return logD at 24 h, 100 µM (reported value) for this molecule: `CCCOc1cc(C)c(-c2cccc(COc3ccc(S(=O)(=O)CC(=O)O)cc3)c2)c(C)c1`
3.58

Return logD at 24 h, 100 µM (reported value) for this molecule: `O=C(O)CS(=O)(=O)c1ccc(OCc2cccc(-c3ccccc3)c2)cc1`
2.13

Return logD at 24 h, 100 µM (reported value) for this molecule: `CCOc1cc(C)c(-c2cccc(COc3ccc(S(=O)(=O)CC(=O)O)cc3)c2)c(C)c1`
2.86

1 = Cc1ccccc1-c1cccc(COc2ccc(S(=O)(=O)CC(=O)O)cc2)c1
2 = Cc1cc(OCC2CC2)cc(C)c1-c1cccc(COc2ccc(S(=O)(=O)CC(=O)O)cc2)c1
Given 1 and given 2 , which shows the smaller recorded logD at 24 h, 100 µM? Choose, then provide that item's label.
1

----------
biological target: Free fatty acid receptor 1 (Homo sapiens); experiment: Agonist activity at human FFA1 receptor expressed in CHO cells assessed as increase in intracellular calcium flux by Fluo 4AM dye-based FLIPR assay; format: functional, cell-based
ENDPOINT: EC50 (nM)

The examples below pair each entry with its known result.
Return EC50 (reported value) for this compound: `O=C(O)CS(=O)(=O)c1ccc(OCc2cccc(-c3ccccc3Cl)c2)cc1`
28.8

Return EC50 (reported value) for this compound: `Cc1nc(-c2ccccc2F)sc1COc1ccc(S(=O)(=O)CC(=O)O)cc1`
550

Return EC50 (reported value) for this compound: `COc1ccccc1-c1cccc(COc2ccc(S(=O)(=O)CC(=O)O)cc2)c1`
195

A = Cc1nc(-c2cccc(Cl)c2)sc1COc1ccc(S(=O)(=O)CC(=O)O)cc1
B = COc1cc(C)c(-c2cccc(COc3ccc(S(=O)(=O)CC(=O)O)cc3)c2)c(C)c1
Given A and given B , which shows the smaller recorded EC50? Choose, then provide that item's label.
B
(B: 57.5 nM, A: 251 nM)

I = Cc1noc(C)c1-c1cccc(COc2ccc(S(=O)(=O)CC(=O)O)cc2)c1
II = Cc1cc(OCC(C)C)cc(C)c1-c1cccc(COc2ccc(S(=O)(=O)CC(=O)O)cc2)c1
Given I and given II , which shows the smaller recorded EC50? Choose, then provide that item's label.
II

1 = Cc1nc(-c2cccc(F)c2)sc1COc1ccc(S(=O)(=O)CC(=O)O)cc1
2 = COCCOc1cc(C)c(-c2cccc(COc3ccc(S(=O)(=O)CC(=O)O)cc3)c2)c(C)c1
Which value of EC50 is numerically greater: that of 1 or that of 2 ? Choose, then provide that item's label.
1
(1: 275 nM, 2: 126 nM)

P = Cc1nc(-c2ccccc2)sc1COc1ccc(S(=O)(=O)CC(=O)O)cc1
Q = CO/N=C(\COc1ccc(COc2ccc(S(=O)(=O)CC(=O)O)cc2)cc1)c1ccccc1
R = COc1cc(C)c(-c2cccc(COc3ccc4c(c3)C(O)CC4CC(=O)O)c2)c(C)c1 (stereo unspecified)
S = O=C(O)CS(=O)(=O)c1ccc(OCc2cccc(-c3ccccc3C(F)(F)F)c2)cc1
T = Cc1ccc(-c2cccc(COc3ccc(S(=O)(=O)CC(=O)O)cc3)c2)c(Cl)c1
In this exercise, place the 5 compounds in ascending sequence of their recorded EC50. Please write the labels in the order that was asked for.
T, S, Q, P, R

P = Cc1ccc(-c2c(C)noc2C)cc1COc1ccc(S(=O)(=O)CC(=O)O)cc1
Q = COc1cc(C)c(-c2cccc(COc3ccc4c(c3)C(=O)CC4CC(=O)O)c2)c(C)c1 (stereo unspecified)
R = CCOc1ccc(-c2cccc(COc3ccc(S(=O)(=O)CC(=O)O)cc3)c2)c(Cl)c1
In this exercise, place the 3 compounds in ascending sequence of their recorded EC50. Please write the labels in the order that was asked for.
R, Q, P

A = Cc1cccc(C)c1-c1cccc(COc2ccc(SCC(=O)O)cc2)c1
B = N#Cc1ccccc1-c1cccc(COc2ccc(S(=O)(=O)CC(=O)O)cc2)c1
C = Cc1ccccc1-c1cccc(COc2ccc(S(=O)(=O)CC(=O)O)cc2)c1
In this exercise, place the 3 compounds in ascending sequence of their recorded EC50. Please write the labels in the order that was asked for.
C, A, B
(C: 46.8 nM, A: 195 nM, B: 457 nM)

a = O=C(O)CS(=O)(=O)c1ccc(OCc2cccc(-c3ccccc3F)c2)cc1
b = Cc1cc(OCCCS(C)(=O)=O)cc(C)c1-c1cccc(COc2ccc(S(=O)(=O)CC(=O)O)cc2)c1
c = O=C(O)CS(=O)(=O)c1ccc(OCc2cccc(Oc3ccccc3)c2)cc1
Given 3 compounds, produce a descending ranking by EC50. Please write the labels in the order that was asked for.
a, b, c

a = Cc1noc(C)c1-c1cc(COc2ccc(S(=O)(=O)CC(=O)O)cc2)ccc1Cl
b = COc1cc(C)c(-c2cccc(COc3ccc4c(c3)SCC4CC(=O)O)c2)c(C)c1 (stereo unspecified)
c = CC(C)c1ccccc1-c1cccc(COc2ccc(S(=O)(=O)CC(=O)O)cc2)c1
In this exercise, place the 3 compounds in ascending sequence of their recorded EC50. Please write the labels in the order that was asked for.
c, b, a
(c: 74.1 nM, b: 123 nM, a: 214 nM)

----------
molecular target: Free fatty acid receptor 1 (Homo sapiens); experiment: Agonist activity at human FFA1 receptor expressed in CHO cells assessed as increase in intracellular calcium flux by Fluo 4AM dye-based FLIPR assay
pEC50: −log10 of the molar value.
ENDPOINT: pEC50

The examples below pair each entry with its known result.
Return pEC50 (reported value) for this compound: `Cc1cccc(C)c1-c1cccc(COc2ccc(S(=O)(=O)CC(=O)O)cc2)c1`
7.18

Return pEC50 (reported value) for this compound: `O=C(O)CS(=O)(=O)c1ccc(OCc2cccc(-c3ccccc3)c2)cc1`
6.54

Return pEC50 (reported value) for this compound: `CCOc1cc(C)c(-c2cccc(COc3ccc(S(=O)(=O)CC(=O)O)cc3)c2)c(C)c1`
7.20

Return pEC50 (reported value) for this compound: `CCCOc1cc(C)c(-c2cccc(COc3ccc(S(=O)(=O)CC(=O)O)cc3)c2)c(C)c1`
7.16

P = Cc1ccc(C)n1-c1cccc(COc2ccc(S(=O)(=O)CC(=O)O)cc2)c1
Q = Cc1cc(OCC2CC2)cc(C)c1-c1cccc(COc2ccc(S(=O)(=O)CC(=O)O)cc2)c1
R = Cc1noc(C)c1-c1cccc(COc2ccc(S(=O)(=O)CC(=O)O)cc2)c1C
S = Cc1cc(OCCCS(C)(=O)=O)cc(C)c1-c1cccc(COc2ccc(CCC(=O)O)cc2)c1
In this exercise, place the 4 compounds in ascending sequence of their recorded pEC50. Please write the labels in the order that was asked for.
R, P, Q, S
(R: 6.44, P: 6.89, Q: 7.10, S: 7.81)

----------
assay: Octanol/phosphate buffer distribution coefficient, log D of the compound at 100 uM at pH 7.4 after 24 hrs by shake flask method; assay type: physicochemical
ENDPOINT: logD at 24 h, 100 µM

Return logD at 24 h, 100 µM (reported value) for this compound: `Cc1ccc(-c2cccc(COc3ccc(S(=O)(=O)CC(=O)O)cc3)c2)c(Cl)c1`
3.05

1 = Cc1cccc(C)c1-c1cccc(COc2ccc(S(=O)(=O)CC(=O)O)cc2)c1
2 = Cc1cc(OCCCS(C)(=O)=O)cc(C)c1-c1cccc(COc2ccc(CCC(=O)O)cc2)c1
Given 1 and given 2 , which shows the smaller recorded logD at 24 h, 100 µM? Choose, then provide that item's label.
1
(1: 2.49, 2: 3.75)

----------
target: Free fatty acid receptor 1 (Homo sapiens, UniProt O14842); assay: Agonist activity at human FFA1 receptor expressed in CHO cells assessed as increase in intracellular calcium flux at 10 uM by Fluo 4AM dye-based FLIPR assay relative to TAK-875; assay type: functional, cell-based
Sequence (O14842 whole entry): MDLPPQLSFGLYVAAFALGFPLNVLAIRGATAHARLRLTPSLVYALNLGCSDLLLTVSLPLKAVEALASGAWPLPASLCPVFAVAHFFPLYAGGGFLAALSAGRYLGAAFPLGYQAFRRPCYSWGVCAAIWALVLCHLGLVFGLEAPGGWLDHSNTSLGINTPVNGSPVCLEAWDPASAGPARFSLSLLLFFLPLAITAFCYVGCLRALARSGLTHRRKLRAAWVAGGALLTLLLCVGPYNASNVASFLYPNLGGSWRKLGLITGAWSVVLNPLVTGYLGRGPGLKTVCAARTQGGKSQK
ENDPOINT: Efficacy (%)

Return Efficacy (reported value) for this compound: `O=C(O)CS(=O)(=O)c1ccc(OCc2cccc(-c3ccccc3Cl)c2)cc1`
115

Return Efficacy (reported value) for this compound: `Cc1ccc(-c2c(C)noc2C)cc1COc1ccc(S(=O)(=O)CC(=O)O)cc1`
73

Return Efficacy (reported value) for this compound: `Cc1ccccc1-c1cccc(COc2ccc(S(=O)(=O)CC(=O)O)cc2)c1`
113

Return Efficacy (reported value) for this compound: `COCCOc1cc(C)c(-c2cccc(COc3ccc(S(=O)(=O)CC(=O)O)cc3)c2)c(C)c1`
95

Return Efficacy (reported value) for this compound: `Cc1nc(-c2ccc(F)cc2)sc1COc1ccc(S(=O)(=O)CC(=O)O)cc1`
92

Return Efficacy (reported value) for this compound: `CO/N=C(\COc1ccc(COc2ccc(S(=O)(=O)CC(=O)O)cc2)cc1)c1ccccc1`
92

Return Efficacy (reported value) for this compound: `CCOc1cc(C)c(-c2cccc(COc3ccc(S(=O)(=O)CC(=O)O)cc3)c2)c(C)c1`
107

Return Efficacy (reported value) for this compound: `COc1ccccc1-c1cccc(COc2ccc(S(=O)(=O)CC(=O)O)cc2)c1`
96
